- assayed-system: UniProt:Q16790
- assay-explanation: Inhibition of GST-tagged recombinant carbonic anhydrase-9 catalytic domain (unknown origin)
Reported pIC50 values for a set of compounds
Scale for pIC50: -log10 of concentration given in mol/L; no unit attached.

The following compounds have reported results that may help.
compound	pIC50
NS(=O)(=O)c1cc(C(=O)NCCOc2ccccc2)c(Cl)cc1Cl	7.98
NS(=O)(=O)c1ccc(-n2cccc2/C=C2/C(=O)NN(c3ccc(F)cc3)C2=O)cc1	8.51
Cc1ccc(N2NC(=O)/C(=C/c3cccn3-c3ccc(S(N)(=O)=O)cc3)C2=O)cc1	7.83
NS(=O)(=O)c1ccc(NC(=O)c2cccc(N3C(=O)CCC3=O)c2)cc1	7.66
NS(=O)(=O)c1ccc(CCNCc2cccc3ccccc23)cc1	7.73
CC1=NN(c2ccc(S(N)(=O)=O)cc2)C(=O)/C1=C\C=C\c1ccccc1	7.72

What measured pIC50 goes with NS(=O)(=O)c1ccc(NC(=S)NC(=O)c2ccccc2)cc1 ?
8.54

What measured pIC50 goes with NS(=O)(=O)c1cccc(NS(=O)(=O)c2ccc3c4c(cccc24)C(=O)N3)c1 ?
7.55

What measured pIC50 goes with NS(=O)(=O)c1ccc(/N=C2/NC(=O)/C(=C/c3cc(O)ccc3Br)S2)cc1 ?
8.34

What measured pIC50 goes with COc1ccc(Cl)cc1CNCCc1ccc(S(N)(=O)=O)cc1 ?
7.16

What measured pIC50 goes with CC1=NN(c2cccc(S(N)(=O)=O)c2)C(=O)C1 ?
6.23

What measured pIC50 goes with COc1ccc(CNc2ccc(S(N)(=O)=O)cc2)cc1OC ?
6.47

What measured pIC50 goes with NS(=O)(=O)c1ccc(CNC2CC(=O)N(c3cccc(Br)c3)C2=O)cc1 (stereo not drawn) ?
6.70

====

- assayed-system: UniProtKB P00918
- assay-explanation: Inhibition of full length carbonic anhydrase-2 in human erythrocytes
- Format: cell-based
experimental-readout: pIC50
Scale for pIC50: -log10 of concentration given in mol/L; no unit attached.

The following compounds have reported results that may help.
smiles-string	experimental-value
CC1=NN(c2cccc(S(N)(=O)=O)c2)C(=O)C1	6.09
NS(=O)(=O)c1cc(C(=O)NCCOc2ccccc2)c(Cl)cc1Cl	7.98
NS(=O)(=O)c1ccc(CCNCc2cccc3ccccc23)cc1	6.81

What measured pIC50 goes with NS(=O)(=O)c1ccc(-n2cccc2/C=C2/C(=O)NN(c3ccc(F)cc3)C2=O)cc1 ?
7.38

This collection of values is drawn from ChEMBL document CHEMBL2390891.
